MIC by entry:
# System: Candida albicans
# Protocol: Antifungal activity against Candida albicans ATCC 10231 measured after 24 hrs by resazurin-staining based serial dilution method
# Type: functional
# Conditions Used: ATCC 10231, 24 h
Number only, in µg/mL; omit the unit.

Query Smiles: COc1ccc2cc1Oc1cc(ccc1OC)[C@H](O)[C@]13SS[C@@]4(C(=O)N1C)[C@H](O)C1=COC=C[C@H](OC2=O)[C@H]1N4C3=O
System Tested: Candida albicans
Units Label: µg/mL
Obs Value: 6.4

Turning now to a further record.
Q: What measured MIC goes with `C[C@@H]1[C@H](O)[C@@H](C)/C=C/C=C/C=C/C=C/C=C/C=C/C=C/[C@H](O[C@@H]2O[C@H](C)[C@@H](O)[C@H](N)[C@@H]2O)C[C@@H]2O[C@](O)(C[C@@H](O)C[C@@H](O)[C@H](O)CC[C@@H](O)C[C@@H](O)CC(=O)O[C@H]1C)C[C@H](O)[C@H]2C(=O)O` ?
Ans: 1.6

* * *

# Protocol: Antiproliferative activity against human DU145 cells
# Format: functional, cell-based
# Conditions Used: DU-145
Assay Endpoint: pIC50
Field pIC50 (float): negative decimal logarithm of the concentration in molar.

Q: What measured pIC50 goes with `COc1ccc2cc1Oc1cc(ccc1OC)[C@H](O)[C@]13SS[C@@]4(C(=O)N1C)[C@H](O)C1=COC=C[C@H](OC2=O)[C@H]1N4C3=O` ?
Ans: 8.03

* * *

MIC by entry:
# Tested on: Candida albicans
# Protocol: Antifungal activity against Candida albicans ATCC 10231 measured after 24 hrs by resazurin-staining based serial dilution method
# Assay type: functional
# Conditions Used: ATCC 10231, 24 h

Worked cases, answers included:
Query Smiles: COc1ccc2cc1Oc1cc(ccc1OC)[C@H](O)[C@]13SSS[C@@]4(C(=O)N1C)[C@H](O)C1=COC=C[C@H](OC2=O)[C@H]1N4C3=O
MIC: > 25.6 µg/mL

Query Smiles: COc1ccc2cc1Oc1cc(ccc1OC)[C@H](O)[C@]13SSSS[C@@]4(C(=O)N1C)[C@H](O)C1=COC=C[C@H](OC2=O)[C@H]1N4C3=O
MIC: > 25.6 µg/mL

Turning now to a further record.
Q: What measured MIC goes with `COc1ccc2cc1Oc1cc(ccc1OC)C(=O)O[C@H]1C=COC=C3[C@@H](O)[C@]45SS[C@](C2)(C(=O)N4[C@@H]31)N(C)C5=O` ?
Ans: > 25.6 µg/mL
